These measurements were taken from PubChem BioAssay AID463173.

System: DeltatarO mutant
Assay: S. aureus survival, RN4220 and DeltatarO strains – OD600, teichoic acid synthesis inhibitors, primary screen (AID 463173)
Conditions: S. aureus RN4220 wild type/DeltatarO growth, OD600, 18 h, screened at 18.75 µg/mL (by protocol)
About 4,300 (8.3%) of roughly 52,000 compounds were called active. No stated cut-off is given here; in the data, active means survival mostly below about 52% (no sharp cut-off); inactive means mostly above about 56%. What follows is part of a selection rich in actives, with near analogues and random picks from the rest.
Answer with one of the outcomes yes (active), no (inactive)

// param item: CCc1ccc(CNC(=O)C2COc3ccccc3C2)cc1 (stereo unspecified) ; yields the recorded call
no

// outcome(item) with item = O=C(NCCc1ccccc1)C1COc2ccccc2C1 (stereo unspecified)
yes

Dear all, I need the recorded test outcome for "CCn1ccc2cc(S(=O)(=O)N3CCC(C(=O)NCCc4ccccc4)CC3)ccc21" , thank you.
no

For CCCOC(=O)CSc1ncnc2sc3c(c12)CCC(C)C3 (stereo unspecified) , what call appears in the results of this test?
yes

Please indicate how the test categorized CC1CCc2c(sc3ncnc(NCCOCCO)c23)C1 (stereo unspecified) .
no

Write down the call the test reported for this compound. Item: Cc1ccc(OCCCCn2nnc3sc4c(c3c2=O)CCC(C)C4)cc1 (stereo unspecified)
no

###

System: DeltatarO mutant
Assay: S. aureus survival, RN4220 and DeltatarO strains – OD600, teichoic acid synthesis inhibitors, primary screen (AID 463173)
Settings: S. aureus RN4220 wild type/DeltatarO growth, OD600, 18 h, stronger effect = lower value, screened at 18.75 µg/mL (by protocol)
The campaign covered roughly 52,000 compounds. About 4,300 (8.3%) were called active. The entries come from a sample that favours actives as a whole.
For each record, check the reported survival: if it is below 70% write True, else write False.

For orientation, consider the following solved cases.
compound | study.target | label.value
CCOC(=O)c1ccccc1NC(=O)N1CCOc2ccc(Cl)cc21 | DeltatarO mutant | False
Cc1cc(C)cc(C(=O)NCC(c2ccc(N(C)C)cc2)N2CCCC2)c1 (stereo unspecified) | DeltatarO mutant | False
Cc1cccc2sc(N(Cc3cccnc3)C(=O)Cc3ccccc3)nc12 | DeltatarO mutant | False
Cc1nc2ccn(Cc3ccco3)c(=O)c2cc1C(=O)N1CCN(c2ccc(F)cc2)CC1 | DeltatarO mutant | False

Is survival of Cc1ccc(-c2nc(CS(=O)(=O)CC(=O)NC(C)CCc3ccccc3)c(C)o2)cc1 (stereo unspecified) strictly below 70%?
True

Does this compound meet the criterion survival < 70%? "CCOc1ccc(NC(=O)c2cc(S(=O)(=O)N3CCCCCC3)cn2C)cc1"
False

###

Test system: DeltatarO mutant
Test: S. aureus survival, RN4220 and DeltatarO strains – OD600, teichoic acid synthesis inhibitors, primary screen (AID 463173)
Conditions: S. aureus RN4220 wild type/DeltatarO growth, OD600, 18 h, stronger effect = lower value, screened at 18.75 µg/mL (by protocol)
Among all 52,000 compounds or so, about 4,300 (8.3%) were called active. The entries come from a sample that favours actives as a whole.
survival by entry:
Numeric answer only, unit % assumed.

A selection of reference data follows.
compound | unit.text | survival
COc1ccc(-c2nc(SCC(=O)NCC3CCCO3)c(-c3ccc(C)cc3)[nH]2)cc1OC (stereo unspecified) | % | 66
CCOc1ccccc1NC(=O)c1c(NCc2ccc(C)o2)sc2c1CCCCC2 | % | 95
N#Cc1ccccc1NC(=O)CSc1nnc(N)s1 | % | 76

Return reported survival; argument: "O=C(/C=C/c1ccccc1)N1CCCC1=O"
94

Form field: reported survival of "O=C(CSc1nc2c([nH]c3ccccc32)c(=O)n1-c1ccccc1)N1CCc2ccccc21"
101

survival lookup needed for "Cc1cccc(N(C)C(=O)Cc2c(C(=O)O)[nH]c3ccccc23)c1" , thanks.
134

Any idea what survival was measured for Cc1ccccc1C(=O)Nc1nc2c(s1)CC(C(C)(C)C)CC2 (stereo unspecified) ?
115

Which value of survival has been reported for "CCn1c(=O)n(-c2ccc(F)cc2)c(=O)c2sc3ccccc3c21" in the records?
88

What value of survival has been reported for the following compound? "COc1cccc(CNC(=O)c2cc(-c3cccc(OC)c3)n[nH]2)c1"
71

Using the record for "COc1ccccc1-c1cc(C(=O)NCc2ccccc2)c2c(-c3ccc(C)cc3)[nH]nc2n1" , report its survival.
80

Which measured survival value corresponds to "Cc1csc(=Nc2ccccc2)n1-c1ccccc1" ?
81
